What Perturb-seq pooled growth sgRNA counts, d5 was measured for each of the following?
System: K562 CRISPRi cells
measurement-protocol: Perturb-seq pooled growth measurement (sgRNA counts, growth phenotype γ, relative activity)
Format: cell-based, human
measurement-conditions: sequencing read counts; 5 days of growth (day seven after transduction)
Could you keep your reply to the number by itself?

Inquiry: Could you please provide reported Perturb-seq pooled growth sgRNA counts, d5 for GATA1_−_48645022.23-P1P2_12: sgRNA targeting GATA1, GTGAGCTTGCCACATCCGCA, SEQ ID NO: 124 (listed as DNA, chemistry not fully specified) ? Thanks!
Reply text: 7289

Inquiry: Consider the substance COX11_+_53045977.23-P1P2_05: sgRNA targeting COX11, GGCTCTGGCGTCTTGGATGG, SEQ ID NO: 144 (listed as DNA, chemistry not fully specified) and give its recorded Perturb-seq pooled growth sgRNA counts, d5.
Reply text: 10766

Inquiry: For GNB2L1_+_180670873.23-P1P2_02: sgRNA targeting GNB2L1, GTGCAAGACGGCGGCAGGAG, SEQ ID NO: 59 (listed as DNA, chemistry not fully specified) , write its Perturb-seq pooled growth sgRNA counts, d5.
Reply text: 6216

Ref: patent US20220259593A1
